Each entry below carries its recorded % food intake inhibition.
Test system: male C57BL/6J mice
Experiment: Food intake assay, bolus ip administration in lean mice
Type: in vivo, mouse
Conditions: bolus ip 2000 nmol/kg, 3 h after administration, vs saline, mean ± SD
Where a SMILES comes first, the peptide text is derived from it. [ ]: non-standard residue; d: D form. The star is where a group is joined. Cha = N[C@@H](CC1CCCCC1)C(=O)O; Aib = CC(C)(N)C(=O)O; Bz = O=C(c1ccccc1)*
PROPERTY: % food intake inhibition (%)

>>> value_measured("CC[C@H](C)[C@H](NC(=O)[C@H](Cc1ccc(O)cc1)NC(=O)[C@H](C)NC(=O)[C@H](CCCNC(=N)N)NC(=O)c1ccccc1)C(=O)N[C@@H](CC(N)=O)C(=O)N[C@@H](CC(C)C)C(=O)N[C@H](C(=O)N[C@H](C(=O)N[C@@H](CCCNC(=N)N)C(=O)N[C@@H](CCC(N)=O)C(=O)N[C@@H](CCCNC(=N)N)C(=O)N[C@@H](Cc1ccc(O)cc1)C(N)=O)[C@@H](C)O)[C@@H](C)CC [Compound 1, benzoyl-[Ala^26,Ile^28,31]PYY(25–36)] (Bz-RAYINLITRQRY-NH2)")
25
>>> value_measured("CC[C@H](C)[C@H](NC(=O)[C@H](CC1CCCCC1)NC(=O)[C@H](Cc1c[nH]cn1)NC(=O)[C@H](CCCNC(=N)N)NC(=O)c1ccccc1)C(=O)N[C@@H](CC(N)=O)C(=O)N[C@@H](Cc1c[nH]c2ccccc12)C(=O)NC(C)(C)C(=O)N[C@H](C(=O)N[C@@H](CCCNC(=N)N)C(=O)N[C@@H](CCC(N)=O)C(=O)N[C@@H](CCCNC(=N)N)C(=O)N[C@@H](CC1CCCCC1)C(N)=O)[C@@H](C)O [Compound 11] (Bz-RH[Cha]INW[Aib]TRQR[Cha]-NH2)")
52
>>> value_measured("CC[C@H](C)[C@H](NC(=O)[C@H](Cc1ccc(O)cc1)NC(=O)[C@H](C)NC(=O)[C@H](CCCNC(=N)N)NC(=O)c1ccccc1)C(=O)N[C@@H](CC(N)=O)C(=O)N[C@@H](CC(C)C)C(=O)N[C@H](C(=O)N[C@H](C(=O)N[C@@H](CCCNC(=N)N)C(=O)N[C@@H](CCC(N)=O)C(=O)N[C@@H](CCCNC(=N)N)C(=O)N[C@@H](CC1CCCCC1)C(N)=O)[C@@H](C)O)[C@@H](C)CC [Compound 2] (Bz-RAYINLITRQR[Cha]-NH2)")
21
>>> value_measured("CC[C@H](C)[C@H](NC(=O)[C@H](CC1CCCCC1)NC(=O)[C@H](Cc1c[nH]cn1)NC(=O)[C@H](CCCNC(=N)N)NC(=O)c1ccccc1)C(=O)N[C@@H](CC(N)=O)C(=O)N[C@@H](CC(C)C)C(=O)N[C@H](C(=O)N[C@H](C(=O)N[C@@H](CCCNC(=N)N)C(=O)N[C@@H](CCC(N)=O)C(=O)N[C@@H](CCCNC(=N)N)C(=O)N[C@@H](Cc1ccc(O)cc1)C(N)=O)[C@@H](C)O)[C@@H](C)CC [Compound 3] (Bz-RH[Cha]INLITRQRY-NH2)")
39

---

Biological target: UniProtKB P49146
Sequence (P49146 1-381): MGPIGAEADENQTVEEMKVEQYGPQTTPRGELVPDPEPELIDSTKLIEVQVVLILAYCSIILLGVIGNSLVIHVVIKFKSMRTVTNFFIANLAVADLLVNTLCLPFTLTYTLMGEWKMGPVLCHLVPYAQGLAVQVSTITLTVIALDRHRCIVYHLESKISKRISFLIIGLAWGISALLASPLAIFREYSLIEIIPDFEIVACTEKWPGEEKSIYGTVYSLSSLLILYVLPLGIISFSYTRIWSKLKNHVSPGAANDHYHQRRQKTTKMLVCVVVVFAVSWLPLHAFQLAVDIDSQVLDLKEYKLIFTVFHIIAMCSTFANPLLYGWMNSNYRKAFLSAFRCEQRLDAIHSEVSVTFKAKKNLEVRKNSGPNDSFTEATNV
pIC50: −log10 of the molar value. Where a SMILES comes first, the peptide text is derived from it. [ ]: non-standard residue; d: D form. The star is where a group is joined. 2Nal = N[C@@H](Cc1ccc2ccccc2c1)C(=O)O; Cyclohexanecarbonyl = O=C(C1CCCCC1)*; Cha = N[C@@H](CC1CCCCC1)C(=O)O; Aib = CC(C)(N)C(=O)O; Bz = O=C(c1ccccc1)*
So basically: pIC50 at 8 or higher? That is y. Lower than 8? That is n.

>>> discrete_label("CC[C@H](C)[C@H](NC(=O)[C@H](CC1CCCCC1)NC(=O)[C@H](Cc1c[nH]cn1)NC(=O)[C@H](CCCNC(=N)N)NC(=O)c1ccccc1)C(=O)N[C@@H](CC(N)=O)C(=O)N[C@@H](CC(C)C)C(=O)NC(C)(C)C(=O)N[C@H](C(=O)N[C@@H](CCCNC(=N)N)C(=O)N[C@@H](CCC(N)=O)C(=O)N[C@@H](CCCNC(=N)N)C(=O)N[C@@H](CC1CCCCC1)C(N)=O)[C@@H](C)O [Compound 10] (Bz-RH[Cha]INL[Aib]TRQR[Cha]-NH2)")
"y"
>>> discrete_label("CC[C@H](C)[C@H](NC(=O)[C@H](CC1CCCCC1)NC(=O)[C@H](Cc1c[nH]cn1)NC(=O)[C@H](CCCNC(=N)N)NC(=O)C1CCCCC1)C(=O)N[C@@H](CC(N)=O)C(=O)N[C@@H](Cc1c[nH]c2ccccc12)C(=O)NC(C)(C)C(=O)N[C@H](C(=O)N[C@@H](CCCNC(=N)N)C(=O)N[C@@H](CCC(N)=O)C(=O)N[C@@H](CCCNC(=N)N)C(=O)N[C@@H](CC1CCCCC1)C(N)=O)[C@@H](C)O [Compound 17] (Cyclohexanecarbonyl-RH[Cha]INW[Aib]TRQR[Cha]-NH2)")
"y"
>>> discrete_label("CC[C@H](C)[C@H](NC(=O)[C@H](CC1CCCCC1)NC(=O)[C@H](Cc1c[nH]cn1)NC(=O)[C@H](CCCNC(=N)N)NC(=O)c1ccccc1)C(=O)N[C@@H](CC(N)=O)C(=O)N[C@@H](CC(C)C)C(=O)N[C@@H](CC1CCCCC1)C(=O)N[C@H](C(=O)N[C@@H](CCCNC(=N)N)C(=O)N[C@@H](CCC(N)=O)C(=O)N[C@@H](CCCNC(=N)N)C(=O)N[C@@H](CC1CCCCC1)C(N)=O)[C@@H](C)O [Compound 8] (Bz-RH[Cha]INL[Cha]TRQR[Cha]-NH2)")
"n"
>>> discrete_label("CC(C)C[C@H](NC(=O)[C@H](CC(N)=O)NC(=O)[C@H](Cc1ccc2ccccc2c1)NC(=O)[C@H](CC1CCCCC1)NC(=O)[C@H](Cc1c[nH]cn1)NC(=O)[C@H](CCCNC(=N)N)NC(=O)c1ccccc1)C(=O)NC(C)(C)C(=O)N[C@H](C(=O)N[C@@H](CCCNC(=N)N)C(=O)N[C@@H](CCC(N)=O)C(=O)N[C@@H](CCCNC(=N)N)C(=O)N[C@@H](CC1CCCCC1)C(N)=O)[C@@H](C)O [Compound 20] (Bz-RH[Cha][2Nal]NL[Aib]TRQR[Cha]-NH2)")
"n"
